List of inhibition values.
biological target: Pantothenate synthetase (Mycobacterium tuberculosis (strain ATCC 25618 / H37Rv)) (UniProt P9WIL5); assay: Coupled enzyme confirmation of inhibitors against recombinant Mtb PanC (AID 375); conditions: coupled enzyme assay; at 10 µM, stronger effect = higher value;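 further: 0% = full reaction with vehicle and 100% = no enzyme background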
Sequence (P9WIL5 whole entry, looked up): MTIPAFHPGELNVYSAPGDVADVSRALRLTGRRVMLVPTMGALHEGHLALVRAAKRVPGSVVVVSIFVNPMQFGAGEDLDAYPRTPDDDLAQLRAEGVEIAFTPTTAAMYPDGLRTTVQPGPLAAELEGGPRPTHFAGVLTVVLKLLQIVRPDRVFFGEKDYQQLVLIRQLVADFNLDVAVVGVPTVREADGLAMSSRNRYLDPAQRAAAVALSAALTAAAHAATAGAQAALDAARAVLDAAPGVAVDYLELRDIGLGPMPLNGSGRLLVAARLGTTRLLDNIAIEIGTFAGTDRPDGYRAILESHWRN
property name: inhibition (%)

> print(dat)
                                    molecule  unit  result.value
 1  CCS(=O)(=O)NCCc1cc2c(OC)ccc(OC)c2[nH]c1=O     %             3
 2  CNc1ccc(C(O)(C(F)(F)F)C(F)(F)F)cc1C(O)(C(F)(F)F)C(F)(F)F     %             0
 3      COC(=O)c1ccccc1NC(=O)c1cnc2sccn2c1=O     %             5
 4  Cc1ccc(C)c(N2CCN(C(=O)c3ccc(CS(=O)(=O)c4ccccc4C)o3)CC2)c1     %             8
 5  Cc1csc(NC(=O)C2CCCO2)n1 (centres undefined)     %             0
 6  CC(c1ccccc1)n1cnc2ccccc21 (centres undefined)     %             0
 7             COC(=O)c1ccccc1NC(=O)Cn1ccnc1     %             0
 8   CCCn1c(=O)c2[nH]c(C3CCCC3)nc2n(CCC)c1=O     %             7
 9             Cc1cc(=O)n2nc(-c3ccccc3)sc2n1     %             0
10          CC(C)(C)c1ccc(C(=O)Nc2cnccn2)cc1     %             2
11  Cc1ccc(Cl)cc1NC(=O)CSc1nnc(C)n1-c1ccccc1     %             0
12  CCCCN(c1ccccc1)S(=O)(=O)c1ccc2c(c1)CCN2C(=O)CCC(=O)O     %             0
13         O=C1CCCc2c1nn(-c1ccccc1)[n+]2[O-]     %             0
14  Cn1c(=O)cc(SCC(=O)N2CCC3(CC2)OCCO3)c2ccc(Cl)cc21     %             9
15  CCOC(=O)CSc1nc2cc(C(=O)NCc3ccco3)ccc2c(=O)n1C1CCCCC1     %             0
16     O=C1c2ccccc2-c2ccc(C(=O)N3CCOCC3)cc21     %             0
17  Cc1ccc(C(=O)CCC2CCCC2=O)cc1 (centres undefined)     %             0
18  Cc1ccc(S(=O)(=O)N2CCCC2C(=O)n2nc(C)cc2C)cc1 (centres undefined)     %             0
19                   Cc1ccccc1NC(=O)c1ccccc1     %            10
20  Cn1c(SCC(N)=O)nnc1C1CCN(C(=O)NCc2ccccc2)CC1     %             0
21  O=C(CN1C(=O)CC(c2ccco2)Sc2ccccc21)Nc1ccccc1F (centres undefined)     %             0
22  Cc1ccccc1-c1nc(CN2CCC(C(=O)N3CCC(C(N)=O)CC3)CC2)c(C)o1     %             0
23  CCOc1cc(C2NC(=O)NC(O)(C(F)(F)F)C2C(=O)c2ccccc2)ccc1OC (centres undefined)     %             3
24                CCCCNC(=O)Nc1ccnn1C1CCCCC1     %             1
